Each recorded value in this set is attributed to PubChem BioAssay AID2060902.

tested on: 485368-065-R3-J5-PDC spheroids with HUVEC/MSC, viability; test: Anticancer human tumor 485368-065-R3-J5-PDC patient-derived pancreatic carcinoma cell line growth inhibition [RAS]; conditions: curve of first compound; second compound 0.01 µM;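 note: spheroids exposed to agents for seven days before readout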
Below, each of the compounds is paired with its reported IC50 value.
Answer format: numeric, nM implied, no suffix.

Consider the following illustrative entries.
[
  {
    "COMPOUND": "CC1(C)CCC(Nc2ncc(C(F)(F)F)c(-c3c[nH]c4c(P(C)(C)=O)c(C#N)ccc34)n2)CN1 (centres undefined) + C=CC(=O)N1CCN(c2nc(OCC3CCCN3C)nc3c(F)c(-c4nc(N)cc(C)c4C(F)(F)F)c(Cl)cc23)C(C)C1",
    "READOUT LABEL": "IC50",
    "NUMERIC VALUE": 2.61
  },
  {
    "COMPOUND": "CCN1CCN(Cc2ccc(Nc3ncc(F)c(-c4cc(F)c5nc(C)n(C(C)C)c5c4)n3)nc2)CC1 + C=CC(=O)N1CCN(c2nc(OCC3CCCN3C)nc3c(F)c(-c4nc(N)cc(C)c4C(F)(F)F)c(Cl)cc23)C(C)C1",
    "READOUT LABEL": "IC50",
    "NUMERIC VALUE": 300
  },
  {
    "COMPOUND": "O=C(c1ccc(F)c(F)c1Nc1ccc(I)cc1F)N1CC(O)([C@@H]2CCCCN2)C1 + C=CC(=O)N1CCN(c2nc(OCC3CCCN3C)nc3c(F)c(-c4nc(N)cc(C)c4C(F)(F)F)c(Cl)cc23)C(C)C1",
    "READOUT LABEL": "IC50",
    "NUMERIC VALUE": 27.8
  },
  {
    "COMPOUND": "Nc1ccn(C2OC(CO)C(O)C2(F)F)c(=O)n1 (centres undefined) + C=CC(=O)N1CCN(c2nc(OCC3CCCN3C)nc3c(F)c(-c4nc(N)cc(C)c4C(F)(F)F)c(Cl)cc23)C(C)C1",
    "READOUT LABEL": "IC50",
    "NUMERIC VALUE": 6.43
  }
]

# query: IC50 of entry CCC(CC)c1cc(NC2CCC(N)C2)n2nccc2n1 (centres undefined) + C=CC(=O)N1CCN(c2nc(OCC3CCCN3C)nc3c(F)c(-c4nc(N)cc(C)c4C(F)(F)F)c(Cl)cc23)C(C)C1
1990
